- test-target: Butyrylcholinesterase (Equus caballus)
- Sequence (Q9N1N9 whole entry): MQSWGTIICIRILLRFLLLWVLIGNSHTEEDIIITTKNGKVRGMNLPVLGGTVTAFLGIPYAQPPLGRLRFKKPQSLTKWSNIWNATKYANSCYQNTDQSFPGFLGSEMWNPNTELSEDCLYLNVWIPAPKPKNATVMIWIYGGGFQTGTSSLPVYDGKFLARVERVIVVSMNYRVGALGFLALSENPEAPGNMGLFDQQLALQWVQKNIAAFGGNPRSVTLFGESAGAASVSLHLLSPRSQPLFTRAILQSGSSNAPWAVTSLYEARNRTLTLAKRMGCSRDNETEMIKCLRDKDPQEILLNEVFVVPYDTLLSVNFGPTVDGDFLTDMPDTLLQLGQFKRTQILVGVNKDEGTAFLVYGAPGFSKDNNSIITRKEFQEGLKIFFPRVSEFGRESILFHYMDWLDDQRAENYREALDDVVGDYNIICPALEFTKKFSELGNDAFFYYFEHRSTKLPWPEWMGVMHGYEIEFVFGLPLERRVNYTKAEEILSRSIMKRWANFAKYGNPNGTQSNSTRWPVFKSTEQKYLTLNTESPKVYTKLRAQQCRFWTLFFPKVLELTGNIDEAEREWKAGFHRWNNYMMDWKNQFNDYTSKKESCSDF
endpoint-label: IC50 (nM)

> print(dat)
                                 smiles.code  units.of.measure  obs.value
 1  CCCN(C)c1ccc(/C=C2\Cc3cc(OC)c(OCCN4CCCCC4)cc3C2=O)cc1                nM       1420
 2  COc1cc2c(cc1OCCCCCN1CCCCC1)C(=O)/C(=C/c1ccc(N(C)C)cc1)C2                nM       2440
 3  COc1cc2c(cc1OCCN1CCCCC1)C(=O)/C(=C/c1ccc(N(C)C)cc1)C2                nM       1490
 4  CCN(C)c1ccc(/C=C2\Cc3cc(OC)c(OCCN4CCCCC4)cc3C2=O)cc1                nM       1270
 5  COc1cc2c(cc1OCCCNC1CCCCC1)C(=O)/C(=C/c1ccc(N(C)C)cc1)C2                nM       1330
 6  CNc1ccc(/C=C2\Cc3cc(OC)c(OCCN4CCCCC4)cc3C2=O)cc1                nM       1640
 7  COc1cc2c(cc1OCCCCNC1CCCCC1)C(=O)/C(=C/c1ccc(N(C)C)cc1)C2                nM       1130
 8  CCN(CC)c1ccc(/C=C2\Cc3cc(OC)c(OCCN4CCCCC4)cc3C2=O)cc1                nM       1380
 9  CCN(CC)c1ccc(/C=C2\Cc3cc(OC)c(OCCCCCN4CCCCC4)cc3C2=O)cc1                nM       2840
10  COc1ccc(/C=C2\Cc3cc(OC)c(OCCN4CCCCC4)cc3C2=O)cc1                nM       3210
11  CCN(CC)c1ccc(/C=C2\Cc3cc(OC)c(OCCCN4CCCCC4)cc3C2=O)cc1                nM       2820
12  COc1cc2c(cc1OCCNC1CCCCC1)C(=O)/C(=C/c1ccc(N(C)C)cc1)C2                nM        363
13  CCCN(CCC)c1ccc(/C=C2\Cc3cc(OC)c(OCCN4CCCCC4)cc3C2=O)cc1                nM       1770
